Test system: Brucella suis
Assay: Potency index, ratio of benzolamide Ki to compound Ki for Brucella suis beta-carbonic anhydrase 2
Catalogue of molecules with associated Ratio Ki
Answer with a number only.

NS(=O)(=O)c1ccc(/N=C/c2ccc(Br)cc2O)cc1	10
N#Cc1ccc(/C=N/CCc2ccc(S(N)(=O)=O)cc2)cc1	100

**Query** Can you look up the measured Ratio Ki of `NS(=O)(=O)c1ccc(CC/N=C/c2cccc(Br)c2O)cc1` for me?
**Result** 10

**Query** // next record `NS(=O)(=O)c1ccc(/N=C/c2ccccc2)c(F)c1`
**Result** 100

**Query** // next record `COc1ccc(/C=N/CCc2ccc(S(N)(=O)=O)cc2)c(O)c1`
**Result** 10

**Query** // next record `CSc1ccc(/C=N/CCc2ccc(S(N)(=O)=O)cc2)cc1`
**Result** 10

**Query** // next record `NS(=O)(=O)c1ccc(CC/N=C/c2c[nH]c3ccc(Br)cc23)cc1`
**Result** 100

**Query** // next record `NS(=O)(=O)c1ccc(CC/N=C/c2ccc(S(=O)(=O)O)o2)cc1`
**Result** 10

**Query** // next record `NS(=O)(=O)c1ccc(CC/N=C/c2ccc(-c3ccccn3)cc2)cc1`
**Result** 10

**Query** // next record `NS(=O)(=O)c1ccc(CC/N=C/c2ccc(-c3ccccc3)cc2)cc1`
**Result** 10

**Query** // next record `NS(=O)(=O)c1ccc(CC/N=C/c2ccc(Br)cc2O)cc1`
**Result** 10

**Query** // next record `NS(=O)(=O)c1ccc(CC/N=C/c2c(F)c(F)cc(F)c2F)cc1`
**Result** 100

----------
Catalogue of compounds with associated Ratio Ki
Test: Selectivity ratio of Ki for human alpha-carbonic anhydrase 1 to Ki for Leishmania donovani chagasi beta-carbonic anhydrase
Answer with a number only.

Below are worked cases with known answers.
N#Cc1ccc(/C=N/CCc2ccc(S(N)(=O)=O)cc2)cc1	1.6
NS(=O)(=O)c1ccc(/N=C/c2ccc(-c3ccccc3)cc2)c(F)c1	9.7
NS(=O)(=O)c1ccc(CC/N=C/c2ccc(-c3ccccn3)cc2)cc1	1.1
NS(=O)(=O)c1ccc(/N=C/c2ccc(-c3ccccn3)cc2)cc1	3.5
NS(=O)(=O)c1ccc(/N=C/c2ccco2)c(F)c1	1.5

**Query** Can you look up the measured Ratio Ki of `NS(=O)(=O)c1ccc(CC/N=C/c2ccc(-c3ccccc3)cc2)cc1` for me?
**Result** 12.9

----------
Test: Inhibition of Cryptococcus neoformans beta-carbonic anhydrase incubated for 15 mins prior to testing by stopped-flow CO2 hydration assay
Catalogue of compounds with associated pKi
FYI, pKi means -log10 of a concentration in mol per litre.

Below are worked cases with known answers.
NS(=O)(=O)c1ccc(/N=C/c2ccc(-c3ccccc3)cc2)c(F)c1	8.02
NS(=O)(=O)c1ccc(/N=C/c2ccc(-c3ccccn3)cc2)cc1	7.66
NS(=O)(=O)c1ccc(CC/N=C/c2ccc(Br)cc2O)cc1	7.65
NS(=O)(=O)c1ccc(CC/N=C/c2cccc(Br)c2O)cc1	7.80
CSc1ccc(/C=N/CCc2ccc(S(N)(=O)=O)cc2)cc1	7.66
NS(=O)(=O)c1ccc(CC/N=C/c2ccc(S(=O)(=O)O)o2)cc1	7.92

**Query** Can you look up the measured pKi of `NS(=O)(=O)c1ccc(/N=C/c2csc3ccccc23)cc1` for me?
**Result** 7.78

**Query** // next record `NS(=O)(=O)c1ccc(CC/N=C/c2ccc(-c3ccccc3)cc2)cc1`
**Result** 8.84

**Query** // next record `NS(=O)(=O)c1ccc(CC/N=C/c2ccc(-c3ccccn3)cc2)cc1`
**Result** 7.72

**Query** // next record `NS(=O)(=O)c1ccc(/N=C/c2ccc(Br)cc2O)cc1`
**Result** 7.77

**Query** // next record `NS(=O)(=O)c1ccc(/N=C/c2ccco2)c(F)c1`
**Result** 7.93

----------
Test: Inhibition of Brucella suis beta-carbonic anhydrase 1 incubated for 15 mins prior to testing by stopped-flow CO2 hydration assay
Catalogue of molecules with associated Ki
Respond with the bare value in nM.

NS(=O)(=O)c1ccc(CC/N=C/c2c(F)c(F)cc(F)c2F)cc1	29.2

Now let's try a different one.
**Query** Can you look up the measured Ki of `CSc1ccc(/C=N/CCc2ccc(S(N)(=O)=O)cc2)cc1` for me?
**Result** 79.4

----------
Assay: Selectivity ratio of Ki for human alpha-carbonic anhydrase 1 to Ki for Brucella suis beta-carbonic anhydrase 1
# class assignment by measured Ratio Ki: bin 0: < 4; bin 1: ≥ 4 and < 40; bin 2: ≥ 40

Solved cases below.
NS(=O)(=O)c1ccc(CC/N=C/c2ccc(Br)cc2O)cc1	bin 1
N#Cc1ccc(/C=N/CCc2ccc(S(N)(=O)=O)cc2)cc1	bin 1
NS(=O)(=O)c1ccc(CC/N=C/c2ccc(-c3ccccc3)cc2)cc1	bin 2

**Query** Which class does `NS(=O)(=O)c1ccc(CC/N=C/c2ccc(S(=O)(=O)O)o2)cc1` fall in?
**Result** bin 1

**Query** // next record `NS(=O)(=O)c1ccc(CC/N=C/c2c(F)c(F)cc(F)c2F)cc1`
**Result** bin 2

**Query** // next record `CSc1ccc(/C=N/CCc2ccc(S(N)(=O)=O)cc2)cc1`
**Result** bin 1

**Query** // next record `NS(=O)(=O)c1ccc(CC/N=C/c2cccc(Br)c2O)cc1`
**Result** bin 2

**Query** // next record `NS(=O)(=O)c1ccc(/N=C/c2ccc(-c3ccccc3)cc2)c(F)c1`
**Result** bin 0

**Query** // next record `COc1cc([N+](=O)[O-])ccc1/C=N/CCc1ccc(S(N)(=O)=O)cc1`
**Result** bin 0

**Query** // next record `NS(=O)(=O)c1ccc(/N=C/c2ccco2)c(F)c1`
**Result** bin 0

----------
Assay: Selectivity ratio of Ki for human alpha-carbonic anhydrase 1 to Ki for Leishmania donovani chagasi beta-carbonic anhydrase
measured.parameter: Ratio Ki

Below are worked cases with known answers.
NS(=O)(=O)c1ccc(/N=C/c2ccc(Br)cc2O)cc1	< 1.7
NS(=O)(=O)c1ccc(CC/N=C/c2c(F)c(F)cc(F)c2F)cc1	24.5
CSc1ccc(/C=N/CCc2ccc(S(N)(=O)=O)cc2)cc1	13.6
COc1cc([N+](=O)[O-])ccc1/C=N/CCc1ccc(S(N)(=O)=O)cc1	0.1

Now let's try a different one.
**Query** Can you look up the measured Ratio Ki of `NS(=O)(=O)c1ccc(CC/N=C/c2cccc(Br)c2O)cc1` for me?
**Result** 4.2

----------
Test: Inhibition of Brucella suis beta-carbonic anhydrase 1 incubated for 15 mins prior to testing by stopped-flow CO2 hydration assay
measured.parameter: pKi
FYI, pKi means -log10 of a concentration in mol per litre.

Below are worked cases with known answers.
NS(=O)(=O)c1ccc(CC/N=C/c2ccc(Br)cc2O)cc1	6.12
NS(=O)(=O)c1ccc(CC/N=C/c2ccc(S(=O)(=O)O)o2)cc1	6.17

**Query** Can you look up the measured pKi of `NS(=O)(=O)c1ccc(/N=C/c2ccco2)c(F)c1` for me?
**Result** 6.51
